Molecular target: T1, Mouse VSIG4-His (mouse)
T1 construct: ECD with His tag; also called mVSIG4
T1 chain: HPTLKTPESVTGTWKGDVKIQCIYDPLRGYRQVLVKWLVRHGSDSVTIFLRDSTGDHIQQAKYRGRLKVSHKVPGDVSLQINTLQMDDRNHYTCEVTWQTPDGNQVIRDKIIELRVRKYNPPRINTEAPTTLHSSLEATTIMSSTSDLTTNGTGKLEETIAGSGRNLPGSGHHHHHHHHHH
Experiment: ELISA, IgG 50 nM on coated antigen;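 further: Mouse-human chimeric IgG4 antibodies incubated 1 h on plate-coated VSIG4 proteins, bound IgG detected with HRP-labelled anti-human IgG, irrelevant antibody and protein as specificity controls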
Give ELISA OD450 for every item shown.
Dear colleague, please return just the value in OD450, with no unit written.

Problem: ELISA OD450 lookup needed for 15C04 mouse/human chimeric IgG4 (S228P) kappa (antibody, V domains shown) VH: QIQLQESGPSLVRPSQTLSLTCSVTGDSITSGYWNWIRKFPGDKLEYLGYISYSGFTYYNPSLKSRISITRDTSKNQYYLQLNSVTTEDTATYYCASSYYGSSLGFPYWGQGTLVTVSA VL: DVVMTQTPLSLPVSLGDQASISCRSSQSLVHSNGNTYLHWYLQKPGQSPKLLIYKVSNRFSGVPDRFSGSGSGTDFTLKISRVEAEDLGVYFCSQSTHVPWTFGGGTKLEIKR , thanks.
Solution: 0.052

Problem: Would you kindly share the measured ELISA OD450 for 14C05 mouse/human chimeric IgG4 (S228P) kappa (antibody, V domains shown) VH: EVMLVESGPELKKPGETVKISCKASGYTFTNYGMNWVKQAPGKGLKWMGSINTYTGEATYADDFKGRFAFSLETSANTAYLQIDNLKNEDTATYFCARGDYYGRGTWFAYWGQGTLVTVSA VL: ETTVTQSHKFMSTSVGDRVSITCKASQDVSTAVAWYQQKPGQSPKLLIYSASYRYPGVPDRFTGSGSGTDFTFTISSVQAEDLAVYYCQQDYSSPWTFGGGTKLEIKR ?
Solution: 0.055

Problem: What value of ELISA OD450 has been reported for the following binder? 12A12 mouse/human chimeric IgG4 (S228P) kappa (antibody, V domains shown) VH: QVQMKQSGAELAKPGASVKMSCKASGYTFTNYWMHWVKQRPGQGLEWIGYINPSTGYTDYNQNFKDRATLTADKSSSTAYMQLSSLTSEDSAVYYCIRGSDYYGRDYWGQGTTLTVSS VL: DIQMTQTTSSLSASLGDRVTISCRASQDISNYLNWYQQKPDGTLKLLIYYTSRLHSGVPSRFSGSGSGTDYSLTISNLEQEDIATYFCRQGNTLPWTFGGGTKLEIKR
Solution: 0.054

Problem: Value lookup for ELISA OD450; key = 15A06 mouse/human chimeric IgG4 (S228P) kappa (antibody, V domains shown) VH: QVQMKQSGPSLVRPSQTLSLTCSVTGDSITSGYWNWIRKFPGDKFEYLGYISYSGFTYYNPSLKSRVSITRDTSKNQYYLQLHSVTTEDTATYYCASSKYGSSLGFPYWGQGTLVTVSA VL: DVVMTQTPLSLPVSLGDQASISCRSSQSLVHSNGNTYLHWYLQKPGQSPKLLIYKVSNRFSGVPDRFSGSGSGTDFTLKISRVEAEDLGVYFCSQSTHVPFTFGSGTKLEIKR
Solution: 0.067

Problem: So what's the measured ELISA OD450 for this one? 12A08 mouse/human chimeric IgG4 (S228P) kappa (antibody, V domains shown) VH: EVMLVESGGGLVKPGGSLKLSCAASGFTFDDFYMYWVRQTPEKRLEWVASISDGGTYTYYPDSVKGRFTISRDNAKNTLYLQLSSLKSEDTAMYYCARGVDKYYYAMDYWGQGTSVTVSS VL: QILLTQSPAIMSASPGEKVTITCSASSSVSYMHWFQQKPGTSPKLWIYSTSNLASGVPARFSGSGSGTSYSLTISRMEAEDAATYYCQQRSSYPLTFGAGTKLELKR
Solution: 0.056

Origin of values: patent US20230348603A1
